- System: NCI-H23 lung
- procedure_details: NCI tumour cell line growth inhibition, 48 h
Entries annotated with measured TGI

C/C(=N\NC(=O)c1ccncc1)c1sc(-n2nc(-c3ccccc3)cc2-c2ccccc2)nc1C    > 31.6 µM
N=c1oc2ccccc2cc1C(=O)Nc1cccc2ccccc12    > 100 µM
O=C=C=P(c1ccccc1)(c1ccccc1)c1ccccc1    > 100 µM
Cc1ccc(S(=O)(=O)OCOS(=O)(=O)c2ccc(C)cc2)cc1    > 100 µM

As a next step, examine the compound that follows.
May I ask what TGI has been recorded for c1ccc(C2=NN2c2ccccc2)cc1 ?
> 100 µM

====

- Tested on: SF-539 CNS
- procedure_details: NCI tumour cell line growth inhibition, 48 h
metric_name: log10 of TGI (log10 of the value in µM)
Transform log10 | Measure TGI | Unit µM

Example cases with answers are listed next.
Clc1sc(Cl)c2c1[C@H](Cl)C[C@@H]2Cl    1.63
COc1cc(C(=O)/C=C/c2cc(-c3ccc4c(c3)OCO4)n[nH]2)cc(OC)c1OC    0.47
CCCC(=O)OCC1OC(n2cc(F)c(=O)[nH]c2=O)CC1O (configuration not stated)    -0.61
C#C[C@@]1(O)[C@@H](CO)O[C@@H](n2cc(Br)c3c(Cl)ccnc32)[C@@H]1O    1.05
C/C=C/C(=O)Oc1cccc2cccnc12    1.60
CCN(CC)CCNc1ccc2ncn3c4ccc(OC)cc4c(=O)c1c23    1.30

As a next step, examine the molecule that follows.
May I ask what log10 of TGI has been recorded for CCOC(=O)C1=C(OC(OCC)C([Se]c2ccccc2)C(C)C)CCC1 (configuration not stated) ?
1.49

====

Entries annotated with measured GI50
- Test system: MOLT-4 leukemia
- procedure_details: NCI tumour cell line growth inhibition, 48 h

CC(=O)[CH-]C(=O)c1ccccc1.CC(=O)[CH-]C(=O)c1ccccc1.Cl.[O-]c1ccnc2ccccc12.[O-]c1ccnc2ccccc12.[Ti+4]    > 100000 nM

As a next step, examine the compound that follows.
May I ask what GI50 has been recorded for CCN1CCN(c2nc(C)cc(NCc3cc(Nc4ccnc5cc(Cl)ccc45)ccc3F)n2)CC1 ?
2440 nM

====

- Tested on: 786-0 renal
- procedure_details: NCI tumour cell line growth inhibition, 48 h
metric_name: GI50

COc1ccc(Oc2nc3cc(N)cc(N)c3nc2-c2ccccc2)cc1    24.4 µM
CCN(CC)CCNC(=O)c1cccc2c1-c1ccccc1C2=O    > 100 µM
O=C1C=C(NCCO)c2nccc3c2c1nc1ccccc13    31.5 µM

May I ask what GI50 has been recorded for COC(=O)[C@H](Cc1cn(C)cn1)NC(=O)[C@H](CC(=O)OCc1ccccc1)NC(=O)Nc1cc(C(F)(F)F)cc(C(F)(F)F)c1 ?
10.9 µM

====

Entries annotated with measured TGI
- Test system: EKVX NSCLC
- procedure_details: NCI tumour cell line growth inhibition, 48 h

Example cases with answers are listed next.
CC(Br)CN1CCOCC1 (stereo not drawn)    > 100 µM
CC(=O)Nc1cc(Cl)cc(Cl)c1O    > 100 µM
Brc1ccccc2cc(-c3ccccc3)nc1-2    40.4 µM
C=C1N(S(=O)(=O)c2ccc(C)cc2)C(=O)OCC12CCCC2    > 100 µM
CC[C@H](C)[C@@H]([C@@H](CC(=O)N1CCC[C@H]1[C@H](OC)[C@@H](C)C(=O)NCCc1ccccc1)OC)N(C)C(=O)C(NC(=O)[C@H](C(C)C)N(C)C)C(C)C (stereo partly drawn)    7.57 µM
CN(C)c1ccc(/C=C(\C#N)c2cc3ccccc3[nH]2)cc1    > 100 µM
C=C(C)C1CC[C@@](C)(O)[C@H](C#N)C1 (stereo partly drawn)    > 100 µM
COc1cc(S(=O)(=O)Nc2ccc(-c3csc(N4C(=O)C(C)SC4c4cccs4)n3)cc2)ccc1Cl (stereo not drawn)    > 100 µM

May I ask what TGI has been recorded for CCc1nc(C)cn1C(=O)OCc1nc2nc(Cl)nc(N3CCOCC3)c2[nH]1 ?
3.07 µM

May I ask what TGI has been recorded for CCOC(=O)[C@@H]1[C@@H](c2ccccc2)N(C)O[C@@]1(c1ccccc1)C(F)(F)F ?
> 100 µM

May I ask what TGI has been recorded for O=C(/C=C/c1ccc(Cl)c(Cl)c1)c1ccccc1Cl ?
31.4 µM

May I ask what TGI has been recorded for O=C=C=P(c1ccccc1)(c1ccccc1)c1ccccc1 ?
> 100 µM

May I ask what TGI has been recorded for C=CCn1c2ccccc2c2c3c(c4c5ccccc5n(CC=C)c4c21)C(=O)N(O)C3=O ?
30.6 µM

May I ask what TGI has been recorded for CC(=Nc1ccc(N(C)C)cc1)c1ccccc1 ?
> 100 µM

May I ask what TGI has been recorded for CC(=O)OCC1(C)C(O)CCC2(C)C1CCC1CC3CC12CCC3(O)CO (stereo not drawn) ?
> 100 µM

May I ask what TGI has been recorded for O=C1Nc2ccc(Br)cc2/C1=N/S(=O)(=O)O ?
85.7 µM

May I ask what TGI has been recorded for O=C(Nc1ccncc1)C(=O)c1cn(S(=O)(=O)c2cccc(Cl)c2)c2ccccc12 ?
> 100 µM

May I ask what TGI has been recorded for CC(C)c1oc(=O)cc2c1C(O)C1OC(=O)C3(C)C(O)C4OC4C2(C)C13 (stereo not drawn) ?
9.84 µM

May I ask what TGI has been recorded for Cc1cccc(NC(=O)C(=O)C(C2OC(=O)c3ccccc32)[N+](=O)[O-])c1C (stereo not drawn) ?
46.3 µM

May I ask what TGI has been recorded for CC(C)(C)OC(=O)N(O)[C@@H]1CC[C@H](n2cnc3c(N)ncnc32)C1 ?
> 100 µM

May I ask what TGI has been recorded for c1ccc(-c2[nH]ncc2-c2ccnc(-c3ccc(OCCN4CCOCC4)cc3)c2)nc1 ?
> 25 µM

May I ask what TGI has been recorded for COc1cc(OCc2ccccc2)c2c(CCC(=O)O)cc(=O)oc2c1 (tested in a mixture with another compound) ?
> 100 µM

May I ask what TGI has been recorded for CC(C)(C)[Si](C)(C)OCC1OC(n2cnc3c(=O)[nH]cnc32)CC1O (stereo not drawn) ?
> 100 µM

May I ask what TGI has been recorded for CCOP(=O)(C/C=C/Cn1ncc(=O)[nH]c1=O)OCC ?
> 100 µM

May I ask what TGI has been recorded for CC1(C)c2ccccc2N2C(c3ccccc3)=NOC21C (stereo not drawn) ?
> 100 µM

May I ask what TGI has been recorded for C=C1c2nc3ccccc3n2C=C(c2ccccc2)N1c1ccc(Cl)cc1 ?
49.2 µM

May I ask what TGI has been recorded for Nc1cccc2c1-c1c(cccc1[N+](=O)[O-])C2=O ?
> 100 µM

May I ask what TGI has been recorded for COc1ccc2c(c1)C(=Nc1ccc(F)c(Cl)c1)c1c-2c(Nc2ccc(F)c(Cl)c2)nc2ccccc12 ?
> 100 µM

All figures here come from PubChem BioAssay (NCI).
